measurement.protocol: qHTS assay for identifying genotoxic compounds that show differential cytotoxicity against isogenic chicken DT40 cell lines with known DNA damage response pathways - wild type cell line (AID 743012); also: nearly all actives have a fitted effect of over 60% in size
test.conditions: DT40 wild type chicken cells viability, CellTiter-Glo, 40 h; series mostly up to 68.4 µM
Inconclusive results are not listed. Calls of active or inactive are those of the source. Calls follow the shape of the dose curve; as a rule, active = well fitted cell-killing curve with a large enough effect in the repeat runs; inconclusive = weak or mixed curves, or effect the other way; inactive = no such curve, though single readings can be large or run the other way.
Pick one: active, inactive

Hi, do you know how `ClC1=C(Cl)[C@]2(Cl)[C@@H]3[C@@H](Cl)[C@H]4O[C@H]4[C@@H]3C1(Cl)C2(Cl)Cl` came out in this test? active

Hi, do you know how `CN(C)[C@H](Cc1ccccc1)c1ccccc1` came out in this test? inactive

Hi, do you know how `CC(C)C[C@H]1C(=O)N2CCC[C@H]2[C@]2(O)O[C@](NC(=O)[C@@H]3C[C@@H]4c5cccc6[nH]cc(c56)C[C@H]4N(C)C3)(C(C)C)C(=O)N12` came out in this test? active

Hi, do you know how `O=C(Nc1ccccc1-c1ccc(Cl)cc1)c1cccnc1Cl` came out in this test? active

Hi, do you know how `O=S(=O)(O)c1cc(O)ccc1O` came out in this test? inactive

====

measurement.protocol: A CellTox Green Cytotoxicity Assay to monitor cytotoxicity in HepG2 cells - 32 hour (AID 1224883); also: nearly all actives have a fitted effect of over 50% in size
test.conditions: CellTox Green fluorescence; series mostly up to 76.8 µM
Results filed as inconclusive are left out. Active and inactive are the calls of the source. The call rests on the fitted dose curve; in most records, active means well fitted activation curve with a large enough effect in the repeat runs; inconclusive means weak or mixed curves; inactive means flat fitted curve, though single readings scatter.
Pick one: true (1) (active), false (0) (inactive)

Hi, do you know how `COc1ccc(C(c2ccc(OC)cc2)C(Cl)(Cl)Cl)cc1` came out in this test? false (0)

Hi, do you know how `Cc1ccc(N(SC(F)(Cl)Cl)S(=O)(=O)N(C)C)cc1` came out in this test? true (1)

Hi, do you know how `COc1cc(OC)c(OC)cc1C=O` came out in this test? false (0)

Hi, do you know how `Oc1c(I)cc(I)cc1I` came out in this test? false (0)

Hi, do you know how `N#Cc1cc([N+](=O)[O-])ccc1N` came out in this test? false (0)

Hi, do you know how `CO/C=C(/C(=O)OC)c1ccccc1Oc1cc(Oc2ccccc2C#N)ncn1` came out in this test? false (0)

Hi, do you know how `O=C(Nc1ccccc1-c1ccc(Cl)cc1)c1cccnc1Cl` came out in this test? true (1)

Hi, do you know how `CC(c1ccccc1)(c1ccc(O)cc1)c1ccc(O)cc1` came out in this test? true (1)

Hi, do you know how `CNC(=O)Oc1cc(C)c(SC)c(C)c1` came out in this test? false (0)

Hi, do you know how OC(Cc1ccccc1Cl)(Cn1[nH]cnc1=S)C1(Cl)CC1 (configuration not stated) came out in this test? false (0)

Hi, do you know how `O=[N+]([O-])c1c(Cl)c(Cl)cc(Cl)c1Cl` came out in this test? true (1)

Hi, do you know how `C[C@]12CC[C@@H](O)C[C@@H]1CC[C@@H]1[C@@H]2CC[C@]2(C)C(=O)CC[C@@H]12` came out in this test? false (0)

====

measurement.protocol: qHTS assay to identify small molecule that activate the aryl hydrocarbon receptor (AhR) signaling pathway - cell viability counter screen (AID 743086); also: nearly all actives have a fitted effect of over 45% in size
test.conditions: HepG2-AhR-luc viability, CellTiter-Fluor, 24 h; series mostly up to 70.3 µM
Records with an inconclusive call do not appear. Calls of active or inactive are those of the source. The call rests on the fitted dose curve; in most records, active means well fitted cell-killing curve with a large enough effect in the repeat runs; inconclusive means weak or mixed curves, or effect the other way; inactive means flat fitted curve, though single readings scatter.
Pick one: yes (active), no (inactive)

Hi, do you know how CC(=O)[C@@]1(O)CC[C@H]2[C@@H]3CCC4=CC(=O)CC[C@]4(C)C3(F)[C@@H](O)C[C@@]21C (stereo partly specified) came out in this test? no

Hi, do you know how `CN[C@]1(c2ccccc2Cl)CCCCC1=O` came out in this test? no

Hi, do you know how `C[C@]12CC[C@H]3[C@@H](CCC4=CC(=O)CC[C@@]43C)[C@@H]1CC[C@H]2O` came out in this test? no

Hi, do you know how `CCN1C[C@]2(COC)[C@H](O)C[C@H](OC)[C@@]34[C@@H]5C[C@@]6(O)[C@H](OC(=O)c7ccccc7)[C@@H]5[C@@](OC(C)=O)([C@@H]([C@H](OC)[C@H]23)[C@@H]14)[C@@H](O)[C@@H]6OC` came out in this test? no

Hi, do you know how `C[C@]12CCC(=O)C[C@@H]1CC[C@@H]1[C@@H]2CC[C@@]2(C)[C@H]1CC[C@]2(C)O` came out in this test? no

Hi, do you know how CN[C@H]1C[C@@H](N)[C@H](O)[C@@H](O[C@@H]2O[C@H](CO)[C@H](O)[C@@H]3OC4(O[C@H]23)O[C@H](C(N)CO)[C@H](O)[C@H](O)[C@H]4O)[C@@H]1O (stereo partly specified) came out in this test? no

Hi, do you know how c1ccc(C2(c3ccccc3)CC2C2=NCCN2)cc1 (stereo unspecified) came out in this test? no

Hi, do you know how NC(=O)CN1CC(O)CC1=O (stereo unspecified) came out in this test? no

Hi, do you know how `O=C(CCl)c1ccc(Oc2ccc(C(=O)CCl)cc2)cc1` came out in this test? no

Hi, do you know how `O=C(O)CCCO` came out in this test? no

Hi, do you know how `Clc1ccccc1-c1ccccc1Cl` came out in this test? no

Hi, do you know how CCCCNCC(O)c1ccc(O)cc1 (stereo unspecified) came out in this test? no

Hi, do you know how `C=CCN1CC[C@]23c4c5ccc(O)c4O[C@H]2[C@@H](O)C=C[C@H]3[C@H]1C5` came out in this test? no

Hi, do you know how CCCCC[C@@H](O)C1C(=O)OC(C)[C@H](O)/C=C/C=C/C=C/C=C/C=C(\C)C(O)C(O)C(O)C[C@H](O)C[C@H](O)C[C@H](O)C[C@H](O)C[C@@H]1O (stereo partly specified) came out in this test? no

Hi, do you know how `CC(=O)O[C@H]1CC[C@H]2[C@@H]3CCC4=CC(=O)CCC4=C3C=C[C@]12C` came out in this test? no

Hi, do you know how NCC(O)c1cccc(O)c1 (stereo unspecified) came out in this test? no

Hi, do you know how `C=CC[C@]1(O)CC[C@H]2[C@@H]3CCC4=CCCC[C@@H]4[C@H]3CC[C@@]21C` came out in this test? no

Hi, do you know how `Oc1ccc2c3c1O[C@H]1[C@@H](O)C=C[C@H]4[C@H](C2)NCC[C@@]341` came out in this test? no

Hi, do you know how O=C1Nc2ccc(Cl)cc2C(c2ccccc2Cl)=NC1O (stereo unspecified) came out in this test? no

Hi, do you know how `C[C@@H]1[C@H](O)[C@@H](C)/C=C/C=C/CC/C=C/C=C/C=C/C=C/[C@H](O[C@H]2O[C@@H](C)[C@H](O)[C@@H](N)[C@H]2O)CC2O[C@](O)(C[C@@H](O)[C@H](O)CC[C@@H](O)C[C@@H](O)C[C@@H](O)CC(=O)O[C@H]1C)C[C@H](O)[C@H]2C(=O)O` came out in this test? no

Hi, do you know how `CC[N+](C)(CC)CCOC(=O)C(O)(c1ccccc1)c1ccccc1` came out in this test? no

Hi, do you know how CCCC(=O)OC(C(Cl)(Cl)Cl)P(=O)(OC)OC (stereo unspecified) came out in this test? no

Hi, do you know how CC(N)Cc1ccc(O)cc1 (stereo unspecified) came out in this test? no

Hi, do you know how `[H+].[H+].[Hg+2].[O-]B([O-])[O-].[c-]1ccccc1` came out in this test? yes

Hi, do you know how `OC[C@@H](O)[C@H]1O[C@@H]2O[C@@H](C(Cl)(Cl)Cl)O[C@@H]2[C@H]1O` came out in this test? no

Hi, do you know how `C[C@H]1CC[C@]2(NC1)O[C@H]1C[C@H]3[C@@H]4CC[C@H]5C[C@@H](O)CC[C@]5(C)[C@H]4CC[C@]3(C)[C@H]1[C@@H]2C` came out in this test? no
